Target: Tyrosine-protein kinase FRK (Homo sapiens)
Sequence (P42685 whole entry): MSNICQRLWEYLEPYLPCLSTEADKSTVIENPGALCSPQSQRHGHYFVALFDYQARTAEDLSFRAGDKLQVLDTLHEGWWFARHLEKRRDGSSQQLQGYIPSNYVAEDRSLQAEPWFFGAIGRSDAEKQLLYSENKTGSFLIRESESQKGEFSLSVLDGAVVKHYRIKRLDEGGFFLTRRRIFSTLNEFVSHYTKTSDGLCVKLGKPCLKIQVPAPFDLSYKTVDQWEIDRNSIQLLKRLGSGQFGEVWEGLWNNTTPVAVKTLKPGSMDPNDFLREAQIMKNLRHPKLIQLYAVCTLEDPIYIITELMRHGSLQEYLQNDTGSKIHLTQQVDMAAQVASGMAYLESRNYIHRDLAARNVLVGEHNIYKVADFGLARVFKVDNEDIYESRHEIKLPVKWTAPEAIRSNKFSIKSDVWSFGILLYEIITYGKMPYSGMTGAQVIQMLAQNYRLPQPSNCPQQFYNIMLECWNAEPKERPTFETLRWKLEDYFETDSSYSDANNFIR
Assay: Inhibition of GST-tagged full length human recombinant FRK expressed in baculovirus using Fluorescein-Poly GT as substrate
measuredParameter: pIC50
Keep in mind that pIC50 stands for -log10 of concentration in molar terms.

Input: Which pIC50 is reported for this compound? COC(=O)c1cc2cc(NCc3cc(NC(=O)c4cc(-n5cnc(C)c5)cc(C(F)(F)F)c4)ccc3C)cnc2[nH]1
Output: 7.21

---

Assay: AUC(0 to infinity) in Swiss mouse plasma at 20 mg/kg, po by LC/MS/MS analysis
Assay type: ADME, organism-based
Set-up: dose 20 mg/kg, time infinity, route oral
measuredParameter: AUC(0-inf) (µg·h/mL)
Only the number, expressed in µg·h/mL, is required.

Input: Which AUC(0-inf) is reported for this molecule? COC(=O)c1cc2cc(NCc3cc(NC(=O)c4cc(-n5cnc(C)c5)cc(C(F)(F)F)c4)ccc3C)cnc2[nH]1
Output: 3.03

---

Molecular target: UniProtKB P00519
Sequence (P00519 whole entry): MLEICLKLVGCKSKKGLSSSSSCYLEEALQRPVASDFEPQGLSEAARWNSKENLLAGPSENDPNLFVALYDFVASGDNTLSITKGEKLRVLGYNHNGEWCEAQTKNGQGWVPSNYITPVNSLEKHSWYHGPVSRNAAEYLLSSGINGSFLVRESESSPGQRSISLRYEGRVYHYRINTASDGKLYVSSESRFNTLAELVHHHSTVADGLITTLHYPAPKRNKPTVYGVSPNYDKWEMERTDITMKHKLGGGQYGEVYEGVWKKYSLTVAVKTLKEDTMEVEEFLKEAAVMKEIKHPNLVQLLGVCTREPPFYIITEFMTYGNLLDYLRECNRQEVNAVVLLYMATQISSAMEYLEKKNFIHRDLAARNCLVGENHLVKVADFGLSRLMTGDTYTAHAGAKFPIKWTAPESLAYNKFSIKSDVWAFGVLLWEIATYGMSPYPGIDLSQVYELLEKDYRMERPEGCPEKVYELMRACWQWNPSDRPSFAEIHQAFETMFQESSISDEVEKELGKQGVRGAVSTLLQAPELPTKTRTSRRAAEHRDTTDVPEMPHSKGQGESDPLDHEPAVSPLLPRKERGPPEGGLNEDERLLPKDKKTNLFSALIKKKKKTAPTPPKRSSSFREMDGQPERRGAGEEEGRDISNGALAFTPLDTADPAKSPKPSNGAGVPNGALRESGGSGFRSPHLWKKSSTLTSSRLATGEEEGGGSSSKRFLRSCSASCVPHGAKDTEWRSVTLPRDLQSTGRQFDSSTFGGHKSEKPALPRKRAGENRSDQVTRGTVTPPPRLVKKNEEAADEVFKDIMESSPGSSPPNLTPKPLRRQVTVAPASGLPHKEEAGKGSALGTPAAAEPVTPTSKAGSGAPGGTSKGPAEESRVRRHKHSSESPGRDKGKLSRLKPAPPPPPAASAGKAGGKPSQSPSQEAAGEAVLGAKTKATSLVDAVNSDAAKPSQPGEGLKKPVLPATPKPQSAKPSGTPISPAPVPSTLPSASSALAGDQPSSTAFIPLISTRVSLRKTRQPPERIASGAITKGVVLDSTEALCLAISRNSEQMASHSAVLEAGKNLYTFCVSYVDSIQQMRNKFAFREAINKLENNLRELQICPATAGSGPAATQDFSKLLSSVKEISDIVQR
Experiment: Inhibition of His-tagged full length human recombinant wild type ABL expressed in baculovirus using Fluorescein-Poly GT as substrate
measuredParameter: IC50 (nM)
Only the number, expressed in nM, is required.

Input: Which IC50 is reported for this molecule? COC(=O)c1cc2cc(NCc3cc(NC(=O)c4cc(-n5cnc(C)c5)cc(C(F)(F)F)c4)ccc3C)cnc2[nH]1
Output: 6

---

Biological target: Serine/threonine-protein kinase B-raf (Homo sapiens) (UniProt P15056)
Sequence (P15056 whole entry): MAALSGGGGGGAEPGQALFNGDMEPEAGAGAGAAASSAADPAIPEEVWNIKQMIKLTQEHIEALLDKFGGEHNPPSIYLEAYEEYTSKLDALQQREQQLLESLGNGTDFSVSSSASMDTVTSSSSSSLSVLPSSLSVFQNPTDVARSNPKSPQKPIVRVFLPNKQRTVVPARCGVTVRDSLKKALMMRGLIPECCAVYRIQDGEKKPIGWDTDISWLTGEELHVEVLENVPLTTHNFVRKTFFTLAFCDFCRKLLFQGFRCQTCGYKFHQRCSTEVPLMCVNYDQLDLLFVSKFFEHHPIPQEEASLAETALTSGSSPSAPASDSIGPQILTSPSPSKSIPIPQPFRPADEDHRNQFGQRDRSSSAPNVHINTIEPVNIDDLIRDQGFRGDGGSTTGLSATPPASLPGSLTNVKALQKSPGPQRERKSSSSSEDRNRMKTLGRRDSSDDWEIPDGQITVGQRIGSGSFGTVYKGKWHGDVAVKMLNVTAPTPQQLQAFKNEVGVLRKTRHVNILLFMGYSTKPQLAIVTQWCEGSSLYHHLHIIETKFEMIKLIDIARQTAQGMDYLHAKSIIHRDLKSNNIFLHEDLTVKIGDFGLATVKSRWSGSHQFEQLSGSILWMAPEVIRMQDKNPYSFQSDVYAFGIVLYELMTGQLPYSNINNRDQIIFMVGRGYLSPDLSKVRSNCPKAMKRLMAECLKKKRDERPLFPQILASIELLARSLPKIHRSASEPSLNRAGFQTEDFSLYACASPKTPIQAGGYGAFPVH
Assay: Inhibition of full length GST-tagged human recombinant BRAF expressed in baculovirus using Fluorescein-MAP2K1 as substrate at 100 nM
What inhibition was measured for each of the following?
Only the number, expressed in %, is required.

Input: # returns recorded inhibition (system: Serine/threonine-protein kinase B-raf (Homo sapiens) (UniProt P15056)) for COC(=O)c1cc2cc(NCc3cc(NC(=O)c4cccc(OC(F)(F)F)c4)ccc3C)cnc2[nH]1
Output: 29

Input: And then COC(=O)c1cc2cc(NCc3cc(NC(=O)c4cc(N(C)C)cc(C(F)(F)F)c4)ccc3C)cnc2[nH]1 , what is it?
Output: 14

Input: And then COC(=O)c1cc2cc(CCc3cc(NC(=O)c4ccc(CN5CCC(N(C)C)C5)c(C(F)(F)F)c4)ccc3C)cnc2[nH]1 (centres undefined) , what is it?
Output: 64

Input: And then Cc1cn(-c2cc(C(=O)Nc3ccc(C)c(CNc4cnc5[nH]c(C(=O)O)cc5c4)c3)cc(C(F)(F)F)c2)cn1 , what is it?
Output: 18

---

What inhibition was measured for each of the following?
Target: Platelet-derived growth factor receptor alpha (Homo sapiens)
Sequence (P16234 whole entry): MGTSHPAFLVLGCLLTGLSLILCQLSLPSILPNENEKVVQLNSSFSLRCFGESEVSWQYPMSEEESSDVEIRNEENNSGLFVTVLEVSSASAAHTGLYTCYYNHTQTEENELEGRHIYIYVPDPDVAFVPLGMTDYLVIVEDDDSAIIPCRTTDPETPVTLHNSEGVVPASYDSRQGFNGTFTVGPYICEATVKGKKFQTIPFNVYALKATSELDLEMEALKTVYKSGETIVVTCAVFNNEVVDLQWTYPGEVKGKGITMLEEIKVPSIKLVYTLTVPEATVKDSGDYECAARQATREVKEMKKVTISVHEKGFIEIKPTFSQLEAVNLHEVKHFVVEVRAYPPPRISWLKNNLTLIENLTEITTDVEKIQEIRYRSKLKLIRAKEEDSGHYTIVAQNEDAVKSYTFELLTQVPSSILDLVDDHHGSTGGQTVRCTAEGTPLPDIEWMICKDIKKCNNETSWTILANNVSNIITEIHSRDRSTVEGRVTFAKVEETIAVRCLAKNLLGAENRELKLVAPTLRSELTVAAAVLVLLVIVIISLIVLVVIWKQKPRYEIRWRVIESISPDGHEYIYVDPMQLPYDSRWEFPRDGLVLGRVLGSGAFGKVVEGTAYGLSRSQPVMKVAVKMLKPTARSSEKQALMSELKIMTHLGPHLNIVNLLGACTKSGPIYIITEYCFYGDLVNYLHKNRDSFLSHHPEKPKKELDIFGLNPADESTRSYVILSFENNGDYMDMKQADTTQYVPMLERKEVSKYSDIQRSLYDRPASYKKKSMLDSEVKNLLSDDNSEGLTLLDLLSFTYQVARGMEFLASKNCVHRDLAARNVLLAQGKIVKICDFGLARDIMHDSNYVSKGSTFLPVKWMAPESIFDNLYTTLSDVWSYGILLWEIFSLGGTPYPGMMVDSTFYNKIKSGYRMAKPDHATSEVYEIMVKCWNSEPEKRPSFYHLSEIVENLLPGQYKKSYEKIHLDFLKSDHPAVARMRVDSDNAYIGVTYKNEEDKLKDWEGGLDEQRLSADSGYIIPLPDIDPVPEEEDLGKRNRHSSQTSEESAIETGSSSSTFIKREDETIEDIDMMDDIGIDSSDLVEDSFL
Assay: Inhibition of full length GST-tagged human recombinant PDGFRalpha expressed in baculovirus using Fluorescein-Poly GT as substrate at 100 nM
Only the number, expressed in %, is required.

Input: Which inhibition is reported for this molecule? COC(=O)c1cc2cc(NCc3cc(NC(=O)Cc4cccc(C(F)(F)F)c4)ccc3C)cnc2[nH]1
Output: 87

Input: And then CNC(=O)c1cc2cc(NCc3cc(NC(=O)c4ccc(CN5CCN(C)CC5)cc4)ccc3C)cnc2[nH]1 , what is it?
Output: 95

Input: And then COC(=O)c1cc2cc(NCc3cc(NC(=O)c4cccc(C)c4)ccc3C)cnc2[nH]1 , what is it?
Output: 87

Input: And then COC(=O)c1cc2cc(NCc3cc(NC(=O)c4ccc(C(F)(F)F)nc4)ccc3C)cnc2[nH]1 , what is it?
Output: 76

Input: And then COC(=O)c1cc2cc(CNc3cc(NC(=O)c4ccc(CN5CCN(C)CC5)cc4)ccc3C)cnc2[nH]1 , what is it?
Output: 88

Input: And then COC(=O)c1cc2cc(NCc3cc(NC(=O)c4cncc(C(F)(F)F)c4)ccc3C)cnc2[nH]1 , what is it?
Output: 93

Input: And then COC(=O)c1cc2cc(NCc3cc(NC(=O)c4ccccc4OC)ccc3C)cnc2[nH]1 , what is it?
Output: 93

Input: And then COC(=O)c1cc2cc(NCc3cc(NC(=O)c4cncc(C)c4)ccc3C)cnc2[nH]1 , what is it?
Output: 93

Input: And then CNC(=O)c1cc2cc(NCc3cc(NC(=O)c4ccc(CN5CCC(N(C)C)C5)c(C(F)(F)F)c4)ccc3C)cnc2[nH]1 (centres undefined) , what is it?
Output: 94
